Reported values of MIC, range over the tested strains for individual entries
Tested on: Candida strains (C. albicans, C. glabrata, C. lipolytica, C. tropicalis)
Type: cell-based
Conditions: 48 h
Where a SMILES comes first, the peptide text is derived from it. The star is where a group is joined. Benzoyl(4-Ph) = O=C(c1ccc(-c2ccccc2)cc1)*; Myristoyl = CCCCCCCCCCCCCC(=O)*; Lauroyl = CCCCCCCCCCCC(=O)*; X1 = CCCCCCC(CCCC)C(=O)*
Measured parameter: MIC, range over the tested strains

>  <Compound>
CC[C@H](C)[C@H](NC(=O)[C@H](CCCNC(=N)N)NC(=O)[C@H](CCC(N)=O)NC(=O)[C@@H](NC(=O)[C@@H](NC(=O)[C@H](CCCNC(=N)N)NC(=O)[C@H](CCCCN)NC(=O)c1ccc(-c2ccccc2)cc1)[C@@H](C)CC)C(C)C)C(=O)N[C@@H](CCCCN)C(=O)N[C@@H](CC(=O)O)C(=O)N[C@@H](Cc1ccccc1)C(=O)N[C@@H](CC(C)C)C(=O)N[C@@H](CCCNC(=N)N)C(N)=O [XXV, 4-Phenylbenzoic acid-KR12-NH2] ({Benzoyl(4-Ph)}-KRIVQRIKDFLR-NH2)

>  <Measured parameter>
MIC, range over the tested strains

>  <Test result>
4 to 16 µg/mL

$$$$
>  <Compound>
CCCCCCC(CCCC)C(=O)N[C@@H](CCCCN)C(=O)N[C@@H](CCCNC(=N)N)C(=O)N[C@H](C(=O)N[C@H](C(=O)N[C@@H](CCC(N)=O)C(=O)N[C@@H](CCCNC(=N)N)C(=O)N[C@H](C(=O)N[C@@H](CCCCN)C(=O)N[C@@H](CC(=O)O)C(=O)N[C@@H](Cc1ccccc1)C(=O)N[C@@H](CC(C)C)C(=O)N[C@@H](CCCNC(=N)N)C(N)=O)[C@@H](C)CC)C(C)C)[C@@H](C)CC (stereo partly shown) [XIX, 2-Butyloctanoic acid-KR12-NH2] (X1-KRIVQRIKDFLR-NH2)

>  <Measured parameter>
MIC, range over the tested strains

>  <Test result>
4 to 16 µg/mL

$$$$
>  <Compound>
CCCCCCCCCCCC(=O)N[C@@H](CCCCN)C(=O)N[C@@H](CCCNC(=N)N)C(=O)N[C@H](C(=O)N[C@H](C(=O)N[C@@H](CCC(N)=O)C(=O)N[C@@H](CCCNC(=N)N)C(=O)N[C@H](C(=O)N[C@@H](CCCCN)C(=O)N[C@@H](CC(=O)O)C(=O)N[C@@H](Cc1ccccc1)C(=O)N[C@@H](CC(C)C)C(=O)N[C@@H](CCCNC(=N)N)C(N)=O)[C@@H](C)CC)C(C)C)[C@@H](C)CC [VI, C12-KR12-NH2] (Lauroyl-KRIVQRIKDFLR-NH2)

>  <Measured parameter>
MIC, range over the tested strains

>  <Test result>
4 to 8 µg/mL

$$$$
>  <Compound>
CCCCCCCCCCCCCC(=O)N[C@@H](CCCCN)C(=O)N[C@@H](CCCNC(=N)N)C(=O)N[C@H](C(=O)N[C@H](C(=O)N[C@@H](CCC(N)=O)C(=O)N[C@@H](CCCNC(=N)N)C(=O)N[C@H](C(=O)N[C@@H](CCCCN)C(=O)N[C@@H](CC(=O)O)C(=O)N[C@@H](Cc1ccccc1)C(=O)N[C@@H](CC(C)C)C(=O)N[C@@H](CCCNC(=N)N)C(N)=O)[C@@H](C)CC)C(C)C)[C@@H](C)CC [VII, C14-KR12-NH2] (Myristoyl-KRIVQRIKDFLR-NH2)

>  <Measured parameter>
MIC, range over the tested strains

>  <Test result>
4 to 8 µg/mL

$$$$
